- System: K562
- Method Description: Antiproliferative activity against human K562 cells assessed as inhibition of cell growth at 0.1 uM incubated for 72 hrs by MTT assay relative to control
- Format: functional
Measurement Name: inhibition at 0.1 µM (%)
Give bare numbers, in %.

A selection of reference data follows.
COc1cc([Se](=O)(=O)/C=C/c2cccc3[nH]ccc23)cc(OC)c1OC : 15.5
COc1ccc(/C=C/[Se](=O)(=O)c2cc(OC)c(OC)c(OC)c2)cc1F : 14
COc1ccc(/C=C/[Se](=O)(=O)c2cc(OC)c(OC)c(OC)c2)cc1OC : 0.13
COc1cc([Se](=O)(=O)/C=C/c2ccc3[nH]ccc3c2)cc(OC)c1OC : 5.63
COc1ccc2c(/C=C/[Se](=O)(=O)c3cc(OC)c(OC)c(OC)c3)cn(C)c2c1 : 2
COc1cc([Se](=O)(=O)/C=C/c2cccc3c2ccn3C)cc(OC)c1OC : 6.45

Okay, next one:
Provide value of inhibition at 0.1 µM for this record tested with K562: `COc1ccc(/C=C/[Se](=O)(=O)c2cc(OC)c(OC)c(OC)c2)cc1O`
12.8
